All values here come from patent US20250042882A1.

molecular target: human phosphodiesterase-3A (Homo sapiens, UniProt Q14432); test: PDE3 Assay; details: human recombinant enzyme expressed in Sf9 cells; formation of 5′AMP from cAMP, SPA
Sequence (Q14432 whole entry): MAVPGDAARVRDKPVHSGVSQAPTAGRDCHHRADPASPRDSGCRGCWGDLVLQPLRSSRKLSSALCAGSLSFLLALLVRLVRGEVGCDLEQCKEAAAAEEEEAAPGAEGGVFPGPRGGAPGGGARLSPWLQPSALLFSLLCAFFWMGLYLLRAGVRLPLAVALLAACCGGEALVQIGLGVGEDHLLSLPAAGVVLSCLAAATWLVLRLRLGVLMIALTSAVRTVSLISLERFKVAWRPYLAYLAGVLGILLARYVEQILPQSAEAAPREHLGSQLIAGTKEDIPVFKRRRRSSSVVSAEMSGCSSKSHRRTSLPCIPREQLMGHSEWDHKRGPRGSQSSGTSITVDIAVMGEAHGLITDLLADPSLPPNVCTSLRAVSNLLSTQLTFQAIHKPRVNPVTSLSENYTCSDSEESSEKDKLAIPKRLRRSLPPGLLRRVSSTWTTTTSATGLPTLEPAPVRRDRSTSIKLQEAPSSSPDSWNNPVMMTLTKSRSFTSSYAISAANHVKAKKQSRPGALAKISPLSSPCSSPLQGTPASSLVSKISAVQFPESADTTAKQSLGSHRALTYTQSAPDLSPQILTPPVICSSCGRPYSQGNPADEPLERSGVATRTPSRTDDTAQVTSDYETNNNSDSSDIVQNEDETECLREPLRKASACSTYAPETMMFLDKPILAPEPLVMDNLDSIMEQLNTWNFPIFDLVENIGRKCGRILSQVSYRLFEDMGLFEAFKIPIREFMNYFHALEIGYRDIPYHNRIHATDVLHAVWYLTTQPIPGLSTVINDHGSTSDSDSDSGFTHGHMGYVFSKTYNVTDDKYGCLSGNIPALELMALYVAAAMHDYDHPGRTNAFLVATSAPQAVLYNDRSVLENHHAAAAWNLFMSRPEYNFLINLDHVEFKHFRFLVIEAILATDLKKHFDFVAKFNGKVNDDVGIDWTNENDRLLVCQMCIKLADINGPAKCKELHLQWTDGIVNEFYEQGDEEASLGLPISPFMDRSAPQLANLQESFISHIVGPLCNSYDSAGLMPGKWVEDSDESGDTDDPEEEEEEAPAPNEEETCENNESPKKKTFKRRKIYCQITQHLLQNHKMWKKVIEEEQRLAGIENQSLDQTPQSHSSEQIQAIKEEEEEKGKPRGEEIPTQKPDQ
measurement type: IC50 (µM)
Numbers only, in µM.

stdin: Respond only with IC50 recorded for N#Cc1ccc(COc2cccc(C3CCN(Cc4nc5ccc(C(=O)O)cc5n4C[C@@H]4CCO4)CC3)n2)c(F)c1 [Ref Comp B, reference compound]
stdout: 11

* * *

Task for the reader: assign each of the following compounds its reported EC50.
target: GLP-1R (Homo sapiens, UniProt P43220); assay: EndoC cAMP Accumulation Assay; details: EndoC-βH1 human pancreatic β cell line; HTRF cAMP accumulation
Sequence (P43220 24-463): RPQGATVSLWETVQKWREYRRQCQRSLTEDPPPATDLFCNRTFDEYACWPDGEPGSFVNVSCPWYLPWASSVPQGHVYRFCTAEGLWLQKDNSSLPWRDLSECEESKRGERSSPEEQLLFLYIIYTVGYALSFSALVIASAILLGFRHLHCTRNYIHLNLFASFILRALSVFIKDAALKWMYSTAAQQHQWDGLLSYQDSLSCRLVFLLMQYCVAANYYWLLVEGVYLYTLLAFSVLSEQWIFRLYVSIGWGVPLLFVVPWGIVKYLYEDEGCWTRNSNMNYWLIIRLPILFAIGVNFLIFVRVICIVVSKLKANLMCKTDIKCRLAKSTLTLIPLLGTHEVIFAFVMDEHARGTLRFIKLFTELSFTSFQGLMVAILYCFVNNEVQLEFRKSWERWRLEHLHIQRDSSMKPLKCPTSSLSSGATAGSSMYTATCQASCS

Here are 3 compounds together with their reported answers.
>  <compound>
COc1cc(C(=O)O)cc2c1nc(CN1C[C@@H]3[C@H](C1)[C@H]3c1cccc3c1O[C@](C)(c1ccc(Cl)cn1)O3)n2CC1CCO1 (single isomer, unassigned) [Example 4a]

>  <EC50>
350 nM

$$$$
>  <compound>
COc1cc(C(=O)O)cc2c1nc(CN1C[C@@H]3[C@H](C1)[C@H]3c1cccc3c1O[C@](C)(c1ccc(Cl)cc1F)O3)n2CC1CCO1 (relative stereo) [Example 2]

>  <EC50>
15 nM

$$$$
>  <compound>
C[C@@]1(c2ccc(Cl)cn2)Oc2cccc([C@H]3[C@@H]4CN(Cc5nc6c(Cl)cc(C(=O)O)cc6n5CC5CCO5)C[C@@H]43)c2O1 (relative stereo) [Example 5]

>  <EC50>
16 nM

$$$$

Now for a further compound.
stdin: Respond only with EC50 recorded for COc1cc(C(=O)O)cc2c1nc(CN1C[C@@H]3[C@H](C1)[C@H]3c1c(F)ccc3c1OC(C)(c1ccc(Cl)cn1)O3)n2C[C@@H]1CCO1 (stereo partly shown) [Example 6]
stdout: 19 nM
